Test: Plasma pharmacokinetics in rabbits (LC-MS/MS)
Assay type: in vivo, rabbit
Details: iv; rabbit plasma, 10 mg/kg, 20 min i.v. infusion
measured quantity: Cmax
State the result as a value with its unit after it.

Data request: # Cmax lookup, item CCCc1cc(=O)oc2c(C(=O)N3CCCc4ccccc43)c(OCCN3CCN(C)CC3)ccc12 [topobexin (9)]
Data returned: 13.5 µM

---

Test system: neonatal rat ventricular cardiomyocytes (NVCM)
Experiment: Protection against DAU-induced cytotoxicity (LDH release) in NVCM
Assay type: cell-based
Set-up: key: % of total LDH activity
Settings: compound 0.01 µM + DAU 1.2 µM
In plain terms, low Suppl.Fig.3 DAU-induced cytotoxicity (LDH release) in NVCM, mean of independent replicates, meaning strictly below 40, gives met, and everything else gives not met.

Data request: Is 40 strictly greater than the molecule's reported Suppl.Fig.3 DAU-induced cytotoxicity (LDH release) in NVCM, mean of independent replicates? molecule: CCCOc1ccc2c(CC)cc(=O)oc2c1C(=O)N1CCCc2ccccc21
Data returned: not met

Data request: Quick check: does CCCCc1cc(=O)oc2c(C(=O)N3CCCc4ccccc43)c(OC)ccc12 have Suppl.Fig.3 DAU-induced cytotoxicity (LDH release) in NVCM, mean of independent replicates under 40?
Data returned: not met

Data request: Hi there! Is Suppl.Fig.3 DAU-induced cytotoxicity (LDH release) in NVCM, mean of independent replicates for CCCc1cc(=O)oc2c(C(=O)N3CCCc4ccccc43)c(OCCO)ccc12 below 40, do you know?
Data returned: not met

Data request: Decide: Suppl.Fig.3 DAU-induced cytotoxicity (LDH release) in NVCM, mean of independent replicates of CCCCc1cc(=O)oc2c(C(=O)N3CCCc4ccccc43)c(OCCO)ccc12 strictly below 40?
Data returned: not met

Data request: Is Suppl.Fig.3 DAU-induced cytotoxicity (LDH release) in NVCM, mean of independent replicates strictly under 40 for the entry CCCCc1cc(=O)oc2c(C(=O)N3CCCc4ccccc43)c(OCCC)ccc12 ?
Data returned: met

Data request: Quick check: does CCCOc1ccc2c(CCC)cc(=O)oc2c1C(=O)N1CCCc2ccccc21 have Suppl.Fig.3 DAU-induced cytotoxicity (LDH release) in NVCM, mean of independent replicates under 40?
Data returned: not met
